Biological target: T1, Anti-CD28 Fab (SEQ ID NOs: 696, 697)
T1 construct: In the phage ELISA the Fab was biotinylated and captured on neutravidin coated plates
T1 sequence (VH, as listed by the source, chain 1 of 2): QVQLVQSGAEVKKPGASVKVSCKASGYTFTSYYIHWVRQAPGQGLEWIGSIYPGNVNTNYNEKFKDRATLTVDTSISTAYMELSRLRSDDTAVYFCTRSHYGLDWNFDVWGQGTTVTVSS
T1 sequence (VL, as listed by the source, chain 2 of 2): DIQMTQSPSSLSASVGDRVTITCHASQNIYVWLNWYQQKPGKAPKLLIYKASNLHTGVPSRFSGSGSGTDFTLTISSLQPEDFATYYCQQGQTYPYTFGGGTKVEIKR
Experiment: phage binding ELISA; clonal phage on plate-captured anti-CD28 Fab pre-incubated with CD28 antigen (competitor)
endpointName: Anti-CD28 Fab signal in the presence of CD28
Reply: number alone, nothing else.

Record summary for HCAAGAHYPWPACL [Phage-1415 (Peptide-92 library clone)] : reported Anti-CD28 Fab signal in the presence of CD28 = 0.12

response.value for GCAAGATYPWPSCL [Phage-1404 (Peptide-92 library clone)] (field: Anti-CD28 Fab signal in the presence of CD28) = 0.06

Anti-CD28 Fab signal in the presence of CD28 measured on TCSAGATYVWPQCF [Phage-1403 (Peptide-92 library clone)] = 0.07

According to the records, this binder TCAAGANYPWPYCL [Phage-1416 (Peptide-92 library clone)] displays Anti-CD28 Fab signal in the presence of CD28 of 0.14
